The reported measurements were obtained from PubChem BioAssay AID651592.

# maps each entry to its IC50
- system.under.test: Interleukin-8 (Homo sapiens) (UniProt P10145)
- Sequence (P10145 whole entry, looked up): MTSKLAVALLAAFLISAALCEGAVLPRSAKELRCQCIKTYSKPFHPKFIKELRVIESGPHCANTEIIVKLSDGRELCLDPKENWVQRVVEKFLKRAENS
- procedure.text: inhibitors of NFkB activation in CF airway cells, SAR follow-up, KKLEB cells, panel, IL8 HTRF, NFkB-GFP (AID 651592);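 further: immortalized cystic fibrosis airway epithelial KKLEB cells with an NF-kB GFP reporter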
- experimental.conditions: PAF/TNFa-induced NFkB-GFP / IL8 HTRF, IL8, PAF-induced, run 2

The compound O=C(Nc1ccc(N2CCN(C(=O)c3ccccc3)CC2)cc1)c1ccccn1 showed IC50 equal to > 66 µM

The compound O=C(Nc1ccc(N2CCN(C(=O)c3ccccc3)CC2)cc1)c1cncc(Br)c1 showed IC50 equal to 7.55 µM

The compound O=C(Nc1ccc(N2CCN(C(=O)c3ccccc3F)CC2)cc1)c1cccnc1 showed IC50 equal to > 66 µM

Continue with the next compound.
The compound O=C(Nc1ccc(N2CCN(C(=O)c3ccccc3Cl)CC2)cc1)c1cncc(Br)c1 showed IC50 equal to 8.41 µM

---

# maps each entry to its IC50
- system.under.test: Interleukin-8 (Homo sapiens) (UniProt P10145)
- procedure.text: inhibitors of NFkB activation in CF airway cells, SAR follow-up, KKLEB cells, panel, IL8 HTRF, NFkB-GFP (AID 651592)
- experimental.conditions: PAF/TNFa-induced NFkB-GFP / IL8 HTRF, IL8, PAF-induced, run 4
# output: bare number, implied unit µM

Answered cases to consult:
The molecule Cc1ccc(CNCc2cc3c(C(C)(C)C)nn(-c4ccccc4)c3[nH]c2=O)cc1 showed IC50 equal to 16.6

The molecule O=C(Nc1ccc(N2CCN(C(=O)c3ccccc3)CC2)cc1)c1cncc(Br)c1 showed IC50 equal to 0.898

The molecule O=C(Nc1ccc(N2CCN(C(=O)c3ccccc3Cl)CC2)cc1)c1cncc(Br)c1 showed IC50 equal to 3.16

More entries:
The molecule O=C(Nc1ccc(N2CCN(C(=O)c3ccccc3Cl)CC2)cc1)c1ccccn1 showed IC50 equal to 3.66

The molecule Cc1ccc(NCc2cc3c(C(C)(C)C)nn(-c4ccccc4)c3[nH]c2=O)cc1 showed IC50 equal to 3.84

The molecule CCOc1ccc(NCc2cc3c(-c4ccc(F)cc4)nn(-c4ccccc4)c3[nH]c2=O)cc1 showed IC50 equal to 0.181

---

- Tested on: IL8
- procedure.text: inhibitors of NFkB activation in CF airway cells, SAR follow-up, KKLEB cells, panel, IL8 HTRF, NFkB-GFP (AID 651592)
- experimental.conditions: PAF/TNFa-induced NFkB-GFP / IL8 HTRF, TNFa-induced, mean of runs, mean IC50 across panel replicates
pIC50: −log10 of the molar value.
measurement.type: pIC50

Answered cases to consult:
The compound O=C(Nc1ccc(N2CCN(C(=O)c3ccccc3)CC2)cc1)c1cccc(Br)c1 showed pIC50 equal to 4.32

The compound O=C(Nc1ccc(N2CCN(C(=O)c3ccccc3)CC2)cc1)c1cc(Br)cc(Br)c1 showed pIC50 equal to < 4.18

The compound CCOc1ccc(NCc2cc3c(C(C)(C)C)nn(-c4ccc(Cl)cc4)c3[nH]c2=O)cc1 showed pIC50 equal to < 4.18

The compound O=C(Nc1ccc(N2CCN(C(=O)c3ccccc3Cl)CC2)cc1)c1ccccn1 showed pIC50 equal to < 4.18

The compound O=C(Nc1ccc(N2CCN(C(=O)c3ccccc3Cl)CC2)cc1)c1cccnc1 showed pIC50 equal to < 4.18

More entries:
The compound CCOc1ccc(NCc2cc3c(C)nn(-c4ccccc4)c3[nH]c2=O)cc1 showed pIC50 equal to < 4.18

The compound CCOc1ccc(NCc2cc3c(-c4ccc(OC)c(OC)c4)nn(-c4ccccc4)c3[nH]c2=O)cc1 showed pIC50 equal to < 4.18

The compound O=C(Nc1ccc(N2CCN(C(=O)c3ccccc3F)CC2)cc1)c1ccccc1 showed pIC50 equal to 4.25

The compound O=C(Nc1ccc(N2CCN(C(=O)c3ccc(F)cc3)CC2)cc1)c1cccnc1 showed pIC50 equal to < 4.18

---

- procedure.text: inhibitors of NFkB activation in CF airway cells, SAR follow-up, KKLEB cells, panel, IL8 HTRF, NFkB-GFP (AID 651592)
- experimental.conditions: PAF/TNFa-induced NFkB-GFP / IL8 HTRF, CF-PAF assay, run 3
measurement.type: pIC50
Answer as the number alone; pIC50 is minus log10 of concentration in mol/L.

Answered cases to consult:
The molecule O=C(Nc1ccc(N2CCN(C(=O)c3ccccc3)CC2)cc1)c1cccc(Br)c1 showed pIC50 equal to 4.72

The molecule CCOc1ccc(NCc2cc3c(C)nn(-c4ccccc4)c3[nH]c2=O)cc1 showed pIC50 equal to 4.79

The molecule O=C(Nc1ccc(N2CCN(C(=O)c3ccccc3Cl)CC2)cc1)c1ccccn1 showed pIC50 equal to 4.78

More entries:
The molecule CCOc1ccc(NCc2cc3c(-c4ccc(F)cc4)nn(-c4ccccc4)c3[nH]c2=O)cc1 showed pIC50 equal to 4.74

The molecule CCOc1ccc(NCc2cc3c(C(C)(C)C)nn(-c4ccccc4)c3[nH]c2=O)cc1 showed pIC50 equal to 4.65

---

# maps each entry to its IC50
- system.under.test: Interleukin-8 (Homo sapiens)
- procedure.text: inhibitors of NFkB activation in CF airway cells, SAR follow-up, KKLEB cells, panel, IL8 HTRF, NFkB-GFP (AID 651592)
- experimental.conditions: PAF/TNFa-induced NFkB-GFP / IL8 HTRF, IL8, PAF-induced, run 6
# output: bare number, implied unit µM

The compound O=C(Nc1ccc(N2CCN(C(=O)c3ccc(F)cc3)CC2)cc1)c1cncc(Br)c1 showed IC50 equal to 7.95

The compound O=C(Nc1ccc(N2CCN(C(=O)c3ccccc3F)CC2)cc1)c1cccnc1 showed IC50 equal to 37.8

The compound O=C(Nc1ccc(N2CCN(C(=O)c3ccccc3Cl)CC2)cc1)c1ccccc1 showed IC50 equal to 10.6

Continue with the next compound.
The compound Cc1ccc(NCc2cc3c(C(C)(C)C)nn(-c4ccccc4)c3[nH]c2=O)cc1 showed IC50 equal to 7.9

---

- system.under.test: Interleukin-8 (Homo sapiens)
- procedure.text: inhibitors of NFkB activation in CF airway cells, SAR follow-up, KKLEB cells, panel, IL8 HTRF, NFkB-GFP (AID 651592);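 further: immortalized cystic fibrosis airway epithelial KKLEB cells with an NF-kB GFP reporter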
- experimental.conditions: PAF/TNFa-induced NFkB-GFP / IL8 HTRF, IL8, PAF-induced, run 4
measurement.type: IC50

Answered cases to consult:
Known value: Interleukin-8 (Homo sapiens) IC50 of the compound CCOc1ccc(NCc2cc3c(C)nn(-c4ccccc4)c3[nH]c2=O)cc1 equals 7.93 µM

Known value: Interleukin-8 (Homo sapiens) IC50 of the compound O=C(Nc1ccc(N2CCN(C(=O)c3ccccc3)CC2)cc1)c1cccc(Br)c1 equals > 66 µM

Known value: Interleukin-8 (Homo sapiens) IC50 of the compound O=C(Nc1ccc(N2CCN(C(=O)c3ccccc3F)CC2)cc1)c1cc(Br)cc(Br)c1 equals > 66 µM

Known value: Interleukin-8 (Homo sapiens) IC50 of the compound O=C(Nc1ccc(N2CCN(C(=O)c3ccccc3F)CC2)cc1)c1ccccn1 equals > 66 µM

Known value: Interleukin-8 (Homo sapiens) IC50 of the compound O=C(Nc1ccc(N2CCN(C(=O)c3ccccc3Cl)CC2)cc1)c1cc(Br)cc(Br)c1 equals > 66 µM

Continue with the next compound.
Known value: Interleukin-8 (Homo sapiens) IC50 of the compound O=C(Nc1ccc(N2CCN(C(=O)c3ccccc3)CC2)cc1)c1ccccn1 equals > 66 µM

---

- system.under.test: Interleukin-8 (Homo sapiens) (UniProt P10145)
- procedure.text: inhibitors of NFkB activation in CF airway cells, SAR follow-up, KKLEB cells, panel, IL8 HTRF, NFkB-GFP (AID 651592);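 further: immortalized cystic fibrosis airway epithelial KKLEB cells with an NF-kB GFP reporter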
- experimental.conditions: PAF/TNFa-induced NFkB-GFP / IL8 HTRF, IL8, PAF-induced, run 5
# maps each entry to its IC50

The molecule O=C(Nc1ccc(N2CCN(C(=O)c3ccccc3F)CC2)cc1)c1cc(Br)cc(Br)c1 showed IC50 equal to > 66 µM

The molecule O=C(Nc1ccc(N2CCN(C(=O)c3ccc(F)cc3)CC2)cc1)c1ccncc1 showed IC50 equal to > 66 µM

The molecule O=C(Nc1ccc(N2CCN(C(=O)c3ccc(F)cc3)CC2)cc1)c1cccc(Br)c1 showed IC50 equal to > 66 µM

The molecule Cc1ccc(NCc2cc3c(C(C)(C)C)nn(-c4ccccc4)c3[nH]c2=O)cc1 showed IC50 equal to 5.83 µM

The molecule O=C(Nc1ccc(N2CCN(C(=O)c3ccccc3F)CC2)cc1)c1ccccc1 showed IC50 equal to > 66 µM

---

- procedure.text: inhibitors of NFkB activation in CF airway cells, SAR follow-up, KKLEB cells, panel, IL8 HTRF, NFkB-GFP (AID 651592);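 further: immortalized cystic fibrosis airway epithelial KKLEB cells with an NF-kB GFP reporter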
- experimental.conditions: PAF/TNFa-induced NFkB-GFP / IL8 HTRF, CF-PAF assay, run 6
measurement.type: IC50

The compound O=C(Nc1ccc(N2CCN(C(=O)c3ccccc3F)CC2)cc1)c1cc(Br)cc(Br)c1 showed IC50 equal to > 66 µM

More entries:
The compound CCOc1ccc(NCc2cc3c(C(C)(C)C)nn(-c4ccccc4)c3[nH]c2=O)cc1 showed IC50 equal to 19 µM

The compound O=C(Nc1ccc(N2CCN(C(=O)c3ccc(F)cc3)CC2)cc1)c1cccnc1 showed IC50 equal to > 66 µM

The compound O=C(Nc1ccc(N2CCN(C(=O)c3ccc(F)cc3)CC2)cc1)c1ccccn1 showed IC50 equal to > 66 µM
